Numbers sourced from paper PMC11882969.

molecular target: UniProt:P21554; assay: bioSensAll ebBRET signaling profiling, hCB1; assay type: cell-based; design: host or cells: HEK293SL cells, transient PEI transfection; settings: Log [Compound] (M) -10.5529; single replicate values, FigS6a
measurement-type: GoB hCB1

Here's what some known entries look like.
Cc1nc(CC2CC2)oc1-c1nc(Cc2cc3c(cc2Br)OCO3)no1 :: -5.77
Cc1cc(C(=O)N2CC3(CCC3)[C@H]2[C@@H]2CCCO2)nn1-c1cccc(C(F)(F)F)c1 :: 1.752
COC(=O)C(NC(=O)c1cc(C)n(-c2cccc(F)c2)n1)c1cccs1 (centres unmarked) :: -1.989

The compound listed as `COC(=O)[C@@H]1[C@@H]2CC[C@@H]2CN1C(=O)c1cc(C)n(-c2cccc(C(F)(F)F)c2)n1` shows GoB hCB1 equal to -0.9636

The compound listed as `Cc1cc(C(=O)NC(c2ccco2)c2ccco2)nn1-c1cccc(C(F)(F)F)c1` shows GoB hCB1 equal to -0.55

----------
molecular target: hCB1 (Homo sapiens); test: bioSensAll ebBRET signaling profiling, hCB1; type: cell-based; parameters: host or cells: HEK293SL cells, transient PEI transfection; settings: read-out: EC50 [95% CI]; hCB1 GoB
measurement-type: EC50 (nM)
Give a bare numeral; the unit nM is implied.

Cc1cc(C(=O)N2CC3(CCC3)[C@H]2[C@H]2CCCO2)nn1-c1cccc(C(F)(F)F)c1 :: 19800
COC(=O)[C@@H]1[C@@H]2CCC[C@@H]2CN1C(=O)c1cc(C)n(-c2cccc(Cl)c2)n1 (racemic) :: 801
COC(=O)C(NC(=O)c1cc(C)n(-c2cccc(F)c2)n1)c1cccs1 (stereo not shown) :: 711

Alright, here's another compound for you.
The compound listed as Cc1cc(C(=O)NC(c2ccccc2)c2ccco2)nn1-c1cccc(C(F)(F)F)c1 (stereo not shown) shows EC50 equal to 91.7

----------
test: Pharmacokinetics: plasma, brain, CSF; details: male, CD-1, mouse, plasma, ip, 0.2 mg/kg
measurement-type: half-life (h)
Give a bare numeral; the unit h is implied.

The compound listed as `COC(=O)[C@@](C)(NC(=O)c1cc(C)n(-c2cccc(C(F)(F)F)c2)n1)c1cccs1` shows half-life equal to 1.85

----------
molecular target: hCB1 (Homo sapiens, UniProt P21554); test: bioSensAll ebBRET signaling profiling, hCB1; type: cell-based; set-up: host or cells: HEK293SL cells, transient PEI transfection; conditions: Gi1 biosensor; Log [Compound] (M) -11.9208
Sequence (P21554 whole entry): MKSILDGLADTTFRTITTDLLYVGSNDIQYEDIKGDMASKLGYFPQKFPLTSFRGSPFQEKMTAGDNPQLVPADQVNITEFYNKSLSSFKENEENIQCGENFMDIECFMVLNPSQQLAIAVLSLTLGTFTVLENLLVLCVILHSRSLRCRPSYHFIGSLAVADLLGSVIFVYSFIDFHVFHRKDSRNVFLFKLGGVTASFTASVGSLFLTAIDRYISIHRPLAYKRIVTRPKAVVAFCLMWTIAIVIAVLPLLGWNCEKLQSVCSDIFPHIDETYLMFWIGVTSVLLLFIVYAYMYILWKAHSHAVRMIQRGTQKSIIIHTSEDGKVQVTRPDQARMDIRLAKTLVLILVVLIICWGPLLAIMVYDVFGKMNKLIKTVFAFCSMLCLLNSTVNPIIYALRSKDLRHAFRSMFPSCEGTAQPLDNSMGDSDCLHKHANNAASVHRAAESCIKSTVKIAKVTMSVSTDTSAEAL
Listing of recorded Gi1 hCB1 response by entry.
Quick one: just the number, no unit, thanks!

Here's what some known entries look like.
COC(=O)[C@@H]1[C@@H]2CC[C@@H]2CN1C(=O)c1cc(C)n(-c2cccc(C(F)(F)F)c2)n1 :: -5.674
CC(=O)C(c1cccs1)N(C)C(=O)c1cc(C)n(-c2cccc(C(F)(F)F)c2)n1 (centres unmarked) :: -4.1073
Cc1cc(C(=O)N2CC3(CCC3)[C@H]2[C@@H]2CCCO2)nn1-c1cccc(C(F)(F)F)c1 :: 1.712
COC(=O)[C@@H]1[C@@H]2CCC[C@@H]2CN1C(=O)c1cc(C)n(-c2cccc(Cl)c2)n1 (racemic) :: -15.2309
COC(=O)[C@](C)(NC(=O)c1cc(C)n(-c2cccc(C(F)(F)F)c2)n1)c1cccs1 :: -1.466
Cc1cc(C(=O)N2CC3(CCC3)[C@H]2[C@H]2CCCO2)nn1-c1cccc(C(F)(F)F)c1 :: -11.3141
COC(=O)C(NC(=O)c1cc(C)n(-c2cccc(C(F)(F)F)c2)n1)c1cccs1 (centres unmarked) :: 6.613

The compound listed as Cc1cc(C(=O)N(C)C(c2ccccc2)c2ccco2)nn1-c1cccc(C(F)(F)F)c1 (centres unmarked) shows Gi1 hCB1 response equal to -13.4627

----------
molecular target: hCB1 (Homo sapiens, UniProt P21554); experiment: bioSensAll ebBRET signaling profiling, hCB1; assay type: cell-based; set-up: host or cells: HEK293SL cells, transient PEI transfection; conditions: hCB1 Gz
measurement-type: pEC50 [95% CI]

Here's what some known entries look like.
COC(=O)C(NC(=O)c1cc(C)n(-c2cccc(F)c2)n1)c1cccs1 (stereo not drawn) :: 6.0 [5.5 – 6.4]
Cc1cc(C(=O)NC(c2ccccc2)c2ccco2)nn1-c1cccc(C(F)(F)F)c1 (stereo not drawn) :: 6.7 [6.2 – 7.1]

The molecule listed as `Cc1cc(C(=O)N2CC3(CCC3)[C@H]2[C@@H]2CCCO2)nn1-c1cccc(C(F)(F)F)c1` shows pEC50 [95% CI] equal to 5.6 [5.2 – 6.1]

----------
Listing of recorded Barr2+GRK2 hCB1 response by entry.
target: hCB1 (Homo sapiens); experiment: bioSensAll ebBRET signaling profiling, hCB1; type: cell-based; set-up: host or cells: HEK293SL cells, transient PEI transfection; conditions: Barr2+GRK2 biosensor; Log [Compound] (M) -11.4949
Quick one: just the number, no unit, thanks!

Cc1nc(CC2CC2)oc1-c1nc(Cc2cc3c(cc2Br)OCO3)no1 :: -38.6243
Brc1cc2c(cc1Cc1noc(-c3cnn(CC4CC4)c3)n1)OCO2 :: -48.1965
Cc1c(C(=O)OCC2CSc3ccccc3O2)cnn1Cc1ccccc1 (stereo not drawn) :: -45.3248
Cn1nc(-c2nnc(C(C)(C)Oc3ccc(Cl)cc3)o2)c2ccccc2c1=O :: -48.5155
Cn1nc(-c2nnc(C(C)(C)Oc3ccc(C(F)(F)F)cc3)o2)c2ccccc2c1=O :: -32.5619

Alright, here's another compound for you.
The compound listed as Cc1nn(Cc2ccc(Cl)cc2)c(C)c1C(=O)OCC1CSc2ccccc2O1 (stereo not drawn) shows Barr2+GRK2 hCB1 response equal to -43.0913

----------
target: hCB1 (Homo sapiens); experiment: bioSensAll ebBRET signaling profiling, hCB1; assay type: cell-based; design: host or cells: HEK293SL cells, transient PEI transfection; conditions: Log [Compound] (M) -11.4949; single replicate values, FigS6a
measurement-type: GoB hCB1
Quick one: just the number, no unit, thanks!

Cc1cc(C(=O)N(C)C(c2ccccc2)c2ccco2)nn1-c1cccc(C(F)(F)F)c1 (centres unmarked) :: -0.7478
Cc1cc(C(=O)N2CC3(CCC3)[C@@H]2[C@@H]2CCCO2)nn1-c1cccc(C(F)(F)F)c1 :: 2.058
Cc1cc(C(=O)N2CC3(CCC3)[C@H]2[C@@H]2CCCO2)nn1-c1cccc(C(F)(F)F)c1 :: 4.324
COC(=O)[C@@H]1[C@@H]2CCC[C@@H]2CN1C(=O)c1cc(C)n(-c2cccc(C(F)(F)F)c2)n1 :: 1.626

Alright, here's another molecule for you.
The molecule listed as `Cn1nc(-c2nnc(C(C)(C)Oc3ccc(C(F)(F)F)cc3)o2)c2ccccc2c1=O` shows GoB hCB1 equal to -6.413

----------
molecular target: hCB1 (Homo sapiens); assay: bioSensAll ebBRET signaling profiling, hCB1; type: cell-based; parameters: host or cells: HEK293SL cells, transient PEI transfection; settings: Gi1 biosensor; Log [Compound] (M) -7.55284
Listing of recorded Gi1 hCB1 response by entry.
Quick one: just the number, no unit, thanks!

Here's what some known entries look like.
COC(=O)[C@](C)(NC(=O)c1cc(C)n(-c2cccc(C(F)(F)F)c2)n1)c1cccs1 :: 52.8535
COc1cccc(C(NC(=O)c2cc(C)n(-c3cccc(C(F)(F)F)c3)n2)c2ccco2)c1 (centres unmarked) :: 10.754
COC(=O)[C@@H]1[C@@H]2CC[C@@H]2CN1C(=O)c1cc(C)n(-c2cccc(C(F)(F)F)c2)n1 :: 2.182
Cc1cc(C(=O)N(C)C(c2ccco2)c2ccco2)nn1-c1cccc(C(F)(F)F)c1 :: 4.107
Cc1cc(C(=O)N2CC3(CCC3)[C@H]2[C@H]2CCCO2)nn1-c1cccc(C(F)(F)F)c1 :: 4.644

The compound listed as Cc1cc(C(=O)NC(c2ccccc2)c2ccco2)nn1-c1cccc(C(F)(F)F)c1 (centres unmarked) shows Gi1 hCB1 response equal to 4.129

The compound listed as COC(=O)C(NC(=O)c1cc(C)n(-c2cccc(C(F)(F)F)c2)n1)c1cccs1 (centres unmarked) shows Gi1 hCB1 response equal to 57.4417

The compound listed as Cc1cc(C(=O)N(C)C(c2ccccc2)c2ccco2)nn1-c1cccc(C(F)(F)F)c1 (centres unmarked) shows Gi1 hCB1 response equal to 14.8945

----------
Listing of recorded GoB hCB1 by entry.
target: UniProtKB P21554; assay: bioSensAll ebBRET signaling profiling, hCB1; type: cell-based; design: host or cells: HEK293SL cells, transient PEI transfection; conditions: Log [Compound] (M) -8.39794; single replicate values, FigS6a
Quick one: just the number, no unit, thanks!

COC(=O)[C@@H]1[C@@H]2CCC[C@@H]2CN1C(=O)c1cc(C)n(-c2cccc(Cl)c2)n1 (racemic) :: -1.197
Cc1cc(C(=O)NC(c2ccccc2)c2ccco2)nn1-c1cccc(C#N)c1 (stereo not drawn) :: -0.9096
COC(=O)C(NC(=O)c1cc(C)n(-c2cccc(C(F)(F)F)c2)n1)c1cccs1 (stereo not drawn) :: 15.743
Cc1cc(C(=O)N(C)C(c2ccccc2)c2ccco2)nn1-c1cccc(C(F)(F)F)c1 (stereo not drawn) :: -2.906
Cc1cc(C(=O)N2CC3(CCC3)[C@H]2[C@H]2CCCO2)nn1-c1cccc(C(F)(F)F)c1 :: 1.554

The compound listed as CC(=O)C(c1cccs1)N(C)C(=O)c1cc(C)n(-c2cccc(C(F)(F)F)c2)n1 (stereo not drawn) shows GoB hCB1 equal to 1.554

The compound listed as `Cc1nc(CC2CC2)oc1-c1nc(Cc2cc3c(cc2Br)OCO3)no1` shows GoB hCB1 equal to -8.01

The compound listed as Cc1cc(C(=O)NC(c2ccccc2)c2ccco2)nn1-c1cccc(C(F)(F)F)c1 (stereo not drawn) shows GoB hCB1 equal to 0.2593

The compound listed as Cc1c(C(=O)OCC2CSc3ccccc3O2)cnn1Cc1ccccc1 (stereo not drawn) shows GoB hCB1 equal to -3.478
